Data origin, for the record: patent US20160200799A1

target: Influenza virus A/Indonesia/5/2005/PR8-IBCDC-RG2 (H5N1) (Influenza A virus A/Indonesia/5/2005/PR8-IBCDC-RG2 (H5N1)); assay: cell-based or functional assay
Overview of reported Neutralizing activity (%) at 100 µg/ml across a group of binders:
Number in %, nothing else.

(Q) Find the measured Neutralizing activity (%) at 100 µg/ml of Group 36 representative clone F082-243, Fab-PP-type antibody (Fab, V domains shown) VH: QVQLQQSGAEVKKPGSSVKVSCKASGGIFRKNAISWVRQAPGQGLEWMGGIIAIFGTANYAQKFQGRVTITADDSTNTVYMELTSLRYEDTAVYYCARGPNYYENYFDFWGQGTLVTVSS VL: EIVLTQSPSSLSASLRDTVTITCRTSQAITNYLAWYQQRPGKAPKLLIYAASVLQSGVPSRFSGSGSGTDFTLTISSLQPEDFATYYCQKYDSAPYTFGQGTKLEIK and report it.
(A) 50.6

(Q) Name the recorded Neutralizing activity (%) at 100 µg/ml of the binder listed here: Group 42 representative clone F083-249, Fab-PP-type antibody (Fab, V domains shown) VH: QVQLVQSGSEVKKPGSSVKVSCKASGVTFSSYAISWVRQAPGQGLEWMGGISPMFGTTRYAQKFQGRVTITADESTRTGFMELSSLRSGDTAVYYCARSPTYYPGALDMWGQGTTVTVSS VL: DVVMTQSPSLLSASVGDRVTITCRASQAIANFVSWFQQKPGEAPKSLIHAASTLQGGVPPRFSGSGYGAVFTLTITNLQPEDFATYFCQQYNSLPFTFGPGTDVEVR
(A) 96.5

Continuing:
(Q) Quote Neutralizing activity (%) at 100 µg/ml reported for Group 44 representative clone F081-008, Fab-PP-type antibody (Fab, V domains shown) VH: QVQLVQSGAEVKKPGSSVKVSCKASGGTFSSFSTYTISWVRQAPGQGLEWMGRSIPLLGITNYAQKFQGRVTITADISTSTAYMELSSLRSEDTAVYYCARYQSSDYYNSEYFQHWGQGTLVTVSS VL: EIVLTQSPGTLSLSLGERVTLSCRASQNVGTNYLAWYQQKPGQAPRLLIYGASSRATGVPDRFSGSGSGTDFTLTISRLAPEDFAVYYCQQYSSSPLTFGGGTKLEIK please.
(A) 48.8
